biological target: T1, hVISTA-ECD 6-His tag (human, UniProt Q9H7M9 33-193); test: SPR 37 C, Ab on Protein A, pH 7.4
T1 construct: also called monovalent hVISTA-ECD; human VISTA
T1 sequence (Q9H7M9 other isoform, or with tags, fused parts or gaps limits assumed): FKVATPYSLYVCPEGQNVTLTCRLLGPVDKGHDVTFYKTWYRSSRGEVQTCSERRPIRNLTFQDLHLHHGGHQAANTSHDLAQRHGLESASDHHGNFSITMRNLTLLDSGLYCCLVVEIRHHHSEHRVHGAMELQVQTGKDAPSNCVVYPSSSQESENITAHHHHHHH
attribute measured: koff (s⁻¹)
Give the quantity in s⁻¹, number only.

Given item P1-068744 (antibody, human IgG1, kappa, V domains shown, also called P1-068744-7) VH: QVQLVESGGGVVQPGRSLRLSCAASGFTFSEYAMHWVRQAPGKGLEWVAHIWYDGSNKYEADSVKGRFTISRDNSKNTLYLQMNSLRAEDTAVYYCARDSGFYESYYFDEWGQGTLVTVSS VL: EIVLTQSPATLSLSPGERATLSCRASQSVSSSYLAWYQQKPGQAPRLLIYDASNRATGIPARFSGSGSGTDFTLTISSLEPEDFATYYCQQYNSYPYTFGQGTKLEIKR , the value recorded as its koff is 0.036

Given item P1-077849 (P1-068744 E59Y E100S) (antibody, V domains shown) VH: QVQLVESGGGVVQPGRSLRLSCAASGFTFSEYAMHWVRQAPGKGLEWVAHIWYDGSNKYYADSVKGRFTISRDNSKNTLYLQMNSLRAEDTAVYYCARDSGFYSSYYFDEWGQGTLVTVSS VL: EIVLTQSPATLSLSPGERATLSCRASQSVSSSYLAWYQQKPGQAPRLLIYDASNRATGIPARFSGSGSGTDFTLTISSLEPEDFATYYCQQYNSYPYTFGQGTKLEIK , the value recorded as its koff is 0.35

Given item P1-077843 (P1-068744 E102Y) (antibody, V domains shown) VH: QVQLVESGGGVVQPGRSLRLSCAASGFTFSEYAMHWVRQAPGKGLEWVAHIWYDGSNKYEADSVKGRFTISRDNSKNTLYLQMNSLRAEDTAVYYCARDSGFYESYYFDYWGQGTLVTVSS VL: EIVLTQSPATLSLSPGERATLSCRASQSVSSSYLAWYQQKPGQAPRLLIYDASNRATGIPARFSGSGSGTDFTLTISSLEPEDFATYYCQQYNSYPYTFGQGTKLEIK , the value recorded as its koff is 0.034

Given item P1-077861 (P1-068744 H50I E102Y) (antibody, V domains shown) VH: QVQLVESGGGVVQPGRSLRLSCAASGFTFSEYAMHWVRQAPGKGLEWVAIIWYDGSNKYEADSVKGRFTISRDNSKNTLYLQMNSLRAEDTAVYYCARDSGFYESYYFDYWGQGTLVTVSS VL: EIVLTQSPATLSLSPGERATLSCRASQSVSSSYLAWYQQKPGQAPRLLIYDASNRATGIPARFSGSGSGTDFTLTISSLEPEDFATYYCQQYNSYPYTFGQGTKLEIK , the value recorded as its koff is 0.0027

Given item P1-077845 (P1-068744 E31S H50I) (antibody, V domains shown) VH: QVQLVESGGGVVQPGRSLRLSCAASGFTFSSYAMHWVRQAPGKGLEWVAIIWYDGSNKYEADSVKGRFTISRDNSKNTLYLQMNSLRAEDTAVYYCARDSGFYESYYFDEWGQGTLVTVSS VL: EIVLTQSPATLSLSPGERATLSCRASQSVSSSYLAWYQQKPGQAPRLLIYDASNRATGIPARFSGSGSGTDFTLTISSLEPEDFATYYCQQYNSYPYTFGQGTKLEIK , the value recorded as its koff is 0.0038

More entries:
Given item P1-077855 (P1-068744 E31S E59Y) (antibody, V domains shown) VH: QVQLVESGGGVVQPGRSLRLSCAASGFTFSSYAMHWVRQAPGKGLEWVAHIWYDGSNKYYADSVKGRFTISRDNSKNTLYLQMNSLRAEDTAVYYCARDSGFYESYYFDEWGQGTLVTVSS VL: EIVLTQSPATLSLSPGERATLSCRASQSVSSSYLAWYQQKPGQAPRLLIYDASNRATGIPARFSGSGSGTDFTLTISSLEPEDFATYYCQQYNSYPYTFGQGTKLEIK , the value recorded as its koff is 0.061

Given item P1-077847 (P1-068744 H50I E59Y) (antibody, V domains shown) VH: QVQLVESGGGVVQPGRSLRLSCAASGFTFSEYAMHWVRQAPGKGLEWVAIIWYDGSNKYYADSVKGRFTISRDNSKNTLYLQMNSLRAEDTAVYYCARDSGFYESYYFDEWGQGTLVTVSS VL: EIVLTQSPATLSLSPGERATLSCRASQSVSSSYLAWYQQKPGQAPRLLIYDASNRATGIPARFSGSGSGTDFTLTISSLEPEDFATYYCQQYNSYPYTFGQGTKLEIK , the value recorded as its koff is 0.0035

Given item P1-077859 (P1-068744 H50I E100S) (antibody, V domains shown) VH: QVQLVESGGGVVQPGRSLRLSCAASGFTFSEYAMHWVRQAPGKGLEWVAIIWYDGSNKYEADSVKGRFTISRDNSKNTLYLQMNSLRAEDTAVYYCARDSGFYSSYYFDEWGQGTLVTVSS VL: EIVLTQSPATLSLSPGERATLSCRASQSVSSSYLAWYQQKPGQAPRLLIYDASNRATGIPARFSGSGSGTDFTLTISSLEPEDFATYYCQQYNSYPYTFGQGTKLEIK , the value recorded as its koff is 0.0044

Given item P1-077839 (P1-068744 E59Y) (antibody, V domains shown) VH: QVQLVESGGGVVQPGRSLRLSCAASGFTFSEYAMHWVRQAPGKGLEWVAHIWYDGSNKYYADSVKGRFTISRDNSKNTLYLQMNSLRAEDTAVYYCARDSGFYESYYFDEWGQGTLVTVSS VL: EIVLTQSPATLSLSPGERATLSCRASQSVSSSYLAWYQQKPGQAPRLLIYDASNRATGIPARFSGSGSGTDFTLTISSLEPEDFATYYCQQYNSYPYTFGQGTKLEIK , the value recorded as its koff is 0.093

Given item P1-077841 (P1-068744 E100S) (antibody, V domains shown) VH: QVQLVESGGGVVQPGRSLRLSCAASGFTFSEYAMHWVRQAPGKGLEWVAHIWYDGSNKYEADSVKGRFTISRDNSKNTLYLQMNSLRAEDTAVYYCARDSGFYSSYYFDEWGQGTLVTVSS VL: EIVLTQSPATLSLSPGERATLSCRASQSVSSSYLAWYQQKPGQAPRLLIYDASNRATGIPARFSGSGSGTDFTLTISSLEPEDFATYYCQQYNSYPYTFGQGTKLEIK , the value recorded as its koff is 0.3
